Would you mind telling me the reported pIC50 of each entry?
- measured-on: His-JNK1 (ref 14-327, Upstate) (UniProt P45983 1-384)
- Sequence (P45983 other isoform, or with tags, fused parts or gaps): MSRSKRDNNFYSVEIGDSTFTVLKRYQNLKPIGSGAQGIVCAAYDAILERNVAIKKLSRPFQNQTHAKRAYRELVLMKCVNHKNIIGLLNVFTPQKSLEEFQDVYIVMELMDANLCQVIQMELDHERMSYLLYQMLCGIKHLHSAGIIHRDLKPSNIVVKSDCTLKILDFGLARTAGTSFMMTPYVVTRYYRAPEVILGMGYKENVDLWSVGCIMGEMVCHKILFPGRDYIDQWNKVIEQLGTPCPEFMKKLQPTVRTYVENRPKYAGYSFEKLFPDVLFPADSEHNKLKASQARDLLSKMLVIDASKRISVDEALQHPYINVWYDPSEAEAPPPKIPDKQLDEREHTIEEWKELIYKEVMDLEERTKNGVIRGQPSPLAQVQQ
- assay-summary: kinase inhibition
Square brackets hold non-standard residues; d marks the D form. Ends that are not written are not given here.
Numbers only, as −log10 of the molar value.

Worked examples follow.
INSERT INTO measurements (binder, reported_property, test_result) VALUES
  ('[dR]KKR[dR]QR[dR]RPTTLNL[dF] [SEQ ID NO: 175]', 'pIC50', 6.73),
  ('[dR]KKR[dR]QRR[dR]RP[dK]RPTTLNL[dW] [SEQ ID NO: 176]', 'pIC50', 6.88),
  ('GRKKRRQRRRPTTLNLFPQVPRSQD [SEQ ID NO: 195]', 'pIC50', 7.97);

Supply recorded pIC50 for [dR]KKR[dR]QR[dR]RP[dA]TLNL[dF] [SEQ ID NO: 183] here.
5.59

Entry source: patent US20160115200A1
